Assay: self-splicing fitness, log relative to wild type (ln ratio); higher = more splicing; Tetrahymena group I intron in knt gene, E. coli kanamycin selection, DiMSum; sequences stand for … in CUCUCU…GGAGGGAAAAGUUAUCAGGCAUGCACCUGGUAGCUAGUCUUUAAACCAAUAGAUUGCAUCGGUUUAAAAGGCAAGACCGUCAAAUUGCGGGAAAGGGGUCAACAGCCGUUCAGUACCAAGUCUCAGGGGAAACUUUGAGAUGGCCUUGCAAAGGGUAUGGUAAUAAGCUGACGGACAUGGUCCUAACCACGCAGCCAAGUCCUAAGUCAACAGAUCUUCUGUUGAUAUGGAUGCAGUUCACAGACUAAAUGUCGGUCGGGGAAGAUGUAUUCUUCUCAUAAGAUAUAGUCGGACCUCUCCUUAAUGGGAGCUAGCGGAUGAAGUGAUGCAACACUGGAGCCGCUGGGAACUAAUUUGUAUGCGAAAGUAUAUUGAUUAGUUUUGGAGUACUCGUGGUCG;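 note: selection with 25 µg/mL kanamycin versus none on LB agar overnight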
Conditions: 37 °C
assayEndpoint: self-splicing fitness (ln)
Provide a numeric answer; units are not to be included.

UCACAGCAAUAUUACGGGUG
-1.67

Asked: Looking for the measured self-splicing fitness (ln) of CUGGAGCAAUAUUACGCGUC , can you help?
Given back: -1.76

Asked: Looking for the measured self-splicing fitness (ln) of AAAUAGCAAUAUUACGUCCC , can you help?
Given back: -1.33

Asked: Looking for the measured self-splicing fitness (ln) of UGCGAGCAAUAUUACGUAGC , can you help?
Given back: -2.05

Asked: Looking for the measured self-splicing fitness (ln) of GGAUAGCAAUAUUACGGGGU , can you help?
Given back: -3.01

Asked: Looking for the measured self-splicing fitness (ln) of UACAAGCAAUAUUACGUGGG , can you help?
Given back: -3.3

Asked: Looking for the measured self-splicing fitness (ln) of CCCAAGCAAUAUUACGACUC , can you help?
Given back: -2.1

Asked: Looking for the measured self-splicing fitness (ln) of UUUGAGCAAUAUUACGGCGG , can you help?
Given back: -1.57

Asked: Looking for the measured self-splicing fitness (ln) of CCAGAGCAAUAUUACGCCUC , can you help?
Given back: 0.134

Asked: Looking for the measured self-splicing fitness (ln) of CAUAAGCAAUAUUACGGAGU , can you help?
Given back: -2.35

Asked: Looking for the measured self-splicing fitness (ln) of CAAGAGCAAUAUUACGGCAA , can you help?
Given back: -3.03

Asked: Looking for the measured self-splicing fitness (ln) of UGGGAGCAAUAUUACGUAUA , can you help?
Given back: -2.74
